This collection of values is drawn from patent US9688684B2.

biological target: human RORγ ligand binding domain (GST-hRORγ-LBD) (Homo sapiens (Human), UniProt P51449); test: TR-FRET assay (biochemical cofactor interaction assay, GST-hRORγ-LBD / TRAP220 peptide)
Sequence (P51449 269-508): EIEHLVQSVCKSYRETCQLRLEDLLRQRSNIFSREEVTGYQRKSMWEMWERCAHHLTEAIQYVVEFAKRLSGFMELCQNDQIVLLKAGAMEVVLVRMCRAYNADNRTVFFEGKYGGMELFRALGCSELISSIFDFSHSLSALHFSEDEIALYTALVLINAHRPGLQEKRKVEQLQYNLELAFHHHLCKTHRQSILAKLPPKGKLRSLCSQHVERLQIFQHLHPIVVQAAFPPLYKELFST
Measured IC50 values are reported for all entries that follow.

Below: 4 molecules and their reported IC50.
>>> result("Brc1cccc(CN2CCn3nnnc3C2C2CCCCC2)c1 (centres unmarked)")
"9.9 to 40 µM"
>>> result("Cc1cccc(CN2CCn3nnnc3C2c2ccc(F)cc2)c1 (single isomer, unassigned) [Compound 93-a]")
"0.01 to 0.99 µM"
>>> result("Fc1ccc(C2c3nnnn3CCN2Cc2ccccc2)cc1 (centres unmarked)")
"0.01 to 0.99 µM"
>>> result("COc1ccc(CN2CCn3nnnc3C2c2ccccc2F)cc1 (centres unmarked)")
"9.9 to 40 µM"

Specify the recorded IC50 for Cc1c(CN2CCn3nnnc3C2c2cn(-c3ccccc3)nc2C(C)C)cnn1C (centres unmarked) , system: human RORγ ligand binding domain (GST-hRORγ-LBD) (Homo sapiens (Human), UniProt P51449).
9.9 to 40 µM

* * *

molecular target: human RORγ ligand binding domain (GST-hRORγ-LBD) (Homo sapiens (Human), UniProt P51449); test: TR-FRET assay (biochemical cofactor interaction assay, GST-hRORγ-LBD / TRAP220 peptide)
pIC50: −log10 of the molar value.
Quantity name: pIC50

Below: 5 molecules and their reported pIC50.
>>> result("CC(C)c1nn(-c2ccccc2)cc1C1c2nnnn2CCN1Cc1cccs1 (racemic) [Compound 61]")
"6.00 to 8.00"
>>> result("Fc1cc(F)cc(C2c3nnnn3CCN2Cc2cccc(Br)c2)c1 (stereo not drawn) [Compound 107]")
"6.00 to 8.00"
>>> result("Fc1ccc(CN2CCn3nnnc3C2c2cccc(F)c2)cc1 (racemic) [Compound 91]")
"5.00 to 6.00"
>>> result("Fc1ccc(C2c3nnnn3CCN2Cc2cccc(Br)c2)cc1 (single isomer, unassigned) [Compound 96-a]")
"6.00 to 8.00"
>>> result("Fc1ccc(C2c3nnnn3CCN2Cc2cccc(Br)c2)cc1 (racemic) [Compound 96]")
"6.00 to 8.00"

Shift focus to the following entry.
Consider the molecule COc1ccc(C2c3nnnn3CCN2Cc2ccc(F)cc2)cc1 (stereo not drawn) [Compound 146] and give its recorded pIC50.
4.40 to 5.00

* * *

Measured IC50 values are reported for all entries that follow.
molecular target: human RORγ ligand binding domain (GST-hRORγ-LBD) (Homo sapiens (Human), UniProt P51449); experiment: TR-FRET assay (biochemical cofactor interaction assay, GST-hRORγ-LBD / TRAP220 peptide)

>>> result("Brc1cccc(C2c3nnnn3CCN2CC2CCCCC2)c1 (stereo not shown) [Compound 9]")
"9.9 to 40 µM"
>>> result("COc1ccc(C2c3nnnn3CCN2Cc2cn(-c3ccccc3)nc2C(C)C)cc1 (stereo not shown) [Compound 5]")
"9.9 to 40 µM"
>>> result("Cc1cccc(CN2CCn3nnnc3C2c2ccccn2)c1 (stereo not shown) [Compound 86]")
"9.9 to 40 µM"
>>> result("c1csc(CN2CCn3nnnc3C2c2cccs2)c1 (stereo not shown) [Compound 47]")
"9.9 to 40 µM"
>>> result("Fc1cccc(CN2CCn3nnnc3C2c2cccc(F)c2)c1 (stereo not shown) [Compound 38]")
"0.99 to 9.9 µM"
>>> result("CCOc1ccc(C2c3nnnn3CCN2CC2CCCCC2)cc1 (stereo not shown) [Compound 44]")
"9.9 to 40 µM"
>>> result("Fc1cccc(C2c3nnnn3CCN2Cc2cccc(Br)c2)c1 (stereo not shown) [Compound 163]")
"0.01 to 0.99 µM"
>>> result("CC(C)c1nn(-c2ccccc2)cc1CN1CCn2nnnc2C1c1cccs1 (stereo not shown) [Compound 48]")
"0.01 to 0.99 µM"

Specify the recorded IC50 for CC(C)c1nn(-c2ccccc2)cc1C1c2nnnn2CCN1Cc1cnn2ccccc12 (stereo not shown) [Compound 154] , system: human RORγ ligand binding domain (GST-hRORγ-LBD) (Homo sapiens (Human), UniProt P51449).
9.9 to 40 µM

Specify the recorded IC50 for CC(C)c1nn(-c2ccccc2)cc1CN1CCn2nnnc2C1c1ccc2c(c1)OCO2 (stereo not shown) [Compound 29] , system: human RORγ ligand binding domain (GST-hRORγ-LBD) (Homo sapiens (Human), UniProt P51449).
9.9 to 40 µM

Specify the recorded IC50 for Fc1ccc(F)c(CN2CCn3nnnc3C2c2cccc(F)c2F)c1 (stereo not shown) [Compound 74] , system: human RORγ ligand binding domain (GST-hRORγ-LBD) (Homo sapiens (Human), UniProt P51449).
9.9 to 40 µM

Specify the recorded IC50 for COc1ccc(OC)c(CN2CCn3nnnc3C2c2ccc(OC(C)C)cc2)c1 (stereo not shown) [Compound 1] , system: human RORγ ligand binding domain (GST-hRORγ-LBD) (Homo sapiens (Human), UniProt P51449).
9.9 to 40 µM

Specify the recorded IC50 for Cc1cccc(CN2CCn3nnnc3C2c2cccc(F)c2)c1 (stereo not shown) [Compound 116] , system: human RORγ ligand binding domain (GST-hRORγ-LBD) (Homo sapiens (Human), UniProt P51449).
0.99 to 9.9 µM

Specify the recorded IC50 for Fc1cc(F)cc(C2c3nnnn3CCN2Cc2ccccc2)c1 (stereo not shown) [Compound 101] , system: human RORγ ligand binding domain (GST-hRORγ-LBD) (Homo sapiens (Human), UniProt P51449).
0.01 to 0.99 µM

Specify the recorded IC50 for Fc1ccc(CN2CCn3nnnc3C2c2ccc3c(c2)OCCO3)cc1 (stereo not shown) [Compound 133] , system: human RORγ ligand binding domain (GST-hRORγ-LBD) (Homo sapiens (Human), UniProt P51449).
0.99 to 9.9 µM

Specify the recorded IC50 for Fc1ccccc1C1c2nnnn2CCN1Cc1cccs1 (stereo not shown) [Compound 137] , system: human RORγ ligand binding domain (GST-hRORγ-LBD) (Homo sapiens (Human), UniProt P51449).
0.99 to 9.9 µM

Specify the recorded IC50 for Fc1ccc(CN2CCn3nnnc3C2c2cccc(F)c2)cc1 (single isomer, unassigned) [Compound 91-b] , system: human RORγ ligand binding domain (GST-hRORγ-LBD) (Homo sapiens (Human), UniProt P51449).
0.99 to 9.9 µM

Specify the recorded IC50 for CC(C)Oc1ccc(CN2CCn3nnnc3C2C2CCCCC2)cc1 (stereo not shown) [Compound 64] , system: human RORγ ligand binding domain (GST-hRORγ-LBD) (Homo sapiens (Human), UniProt P51449).
9.9 to 40 µM

Specify the recorded IC50 for CN(C)c1ccc(C2c3nnnn3CCN2CC2CCCCC2)cc1 (stereo not shown) [Compound 19] , system: human RORγ ligand binding domain (GST-hRORγ-LBD) (Homo sapiens (Human), UniProt P51449).
9.9 to 40 µM
